assay-remarks: qHTS Assay for Spectroscopic Profiling in A350 Spectral Region
cond: Compound autofluorescence, 340/450 nm, Alexa 350 dye-equivalents
In all, about 59,000 compounds went through this assay and about 6,500 (11%) were called active. Not shown: some 15% with an inconclusive outcome. No stated cut-off is given here; in the data, active means max dye-equivalent concentration above about 10 nM; inconclusive means mostly about 1.1 nM to 9.6 nM; inactive means weaker than that. Many of the other results were omitted from the sample, so actives are more common in it than they were.
// allowed return values: y (active), n (inactive)

compound	class-assignment
CCOC(=O)Cc1c(C)nc2c(C#N)c(C)nn2c1C	y
CCC[C@H]1C(=O)N2C(N(C)C)=Nc3ccc(C)cc3N2C1=O	n
COC(=O)Cn1cc(C(=O)c2cccs2)c2ccccc21	n
CN(C(=O)COc1ccccc1)c1nnc(-c2ccncc2)s1	n
Fc1ccc2[nH]c3c(N4CCSCC4)ncnc3c2c1	y
OCCCNCc1ccccn1	n
Clc1ccc(Nc2nc(-c3cccs3)cs2)nc1	n
O=S1(=O)CC(NCc2ccccc2)C(Nc2ccc(Cl)cc2)C1 (stereo unspecified)	n

Lab log entry: CC1CCCCC1NC(=O)CCS(=O)(=O)c1cccc2nonc12 (stereo unspecified) — outcome as called in the assay?
n

Lab log entry: `C=CCn1c(SCn2nnc3ccccc3c2=O)nnc1-c1ccc(Cl)cc1` — outcome as called in the assay?
n

====

assay-remarks: qHTS Assay for Spectroscopic Profiling in A350 Spectral Region
cond: Compound autofluorescence, 340/450 nm, Alexa 350 dye-equivalents
Screen size: about 59,000 compounds; about 6,500 (11%) were called active. Another 15% or so got no clear call; they are omitted. Rule as the data show it: active = max dye-equivalent concentration above about 10 nM; inconclusive = mostly about 1.1 nM to 9.6 nM; inactive = weaker than that. Shown is part of a subset that was picked to be rich in actives.
// allowed return values: 1 = active, -1 = inactive

Worked cases, answers included:
compound	class-assignment
Cc1cc(Cl)ccc1N1C(=O)CC(SCCC(=O)O)C1=O (configuration not stated)	-1
Cn1c(-c2ccc(F)cc2)cnc1SCC(=O)NCc1ccco1	-1

Lab log entry: `Cc1ccc2nc(S(=O)(=O)O)[nH]c2c1` — outcome as called in the assay?
-1

Lab log entry: `CN(C)CCCn1c(N)c(C#N)c2nc(C#N)c(C#N)nc21` — outcome as called in the assay?
1

Lab log entry: Cc1ccc(-c2noc(-c3ccccc3C(=O)NCC3CCCO3)n2)cc1 (configuration not stated) — outcome as called in the assay?
-1

Lab log entry: CC(Sc1nncn1C)C(=O)Nc1ccccc1-c1ccccc1 (configuration not stated) — outcome as called in the assay?
-1

Lab log entry: `CCOc1ccccc1NC(=O)Nc1cc(OC)ccc1OC` — outcome as called in the assay?
-1

Lab log entry: `O=C(Nc1cnccn1)c1cccnc1` — outcome as called in the assay?
-1

Lab log entry: `Cc1ccc(C(=O)NC2CC(C)(C)NC(C)(C)C2)c(C)c1` — outcome as called in the assay?
-1

Lab log entry: `Cc1cc(C)cc(OCc2nnc(SCC(=O)OC3CCCCC3)o2)c1` — outcome as called in the assay?
-1

Lab log entry: `CCOC(=O)c1[nH]cnc1C(=O)NC1CCCCC1` — outcome as called in the assay?
-1

Lab log entry: CC1CCCC(NC(=O)CN2CCN(Cc3ccc(Cl)cc3)C2=O)C1C (configuration not stated) — outcome as called in the assay?
-1

Lab log entry: `O=C(CSc1nc2ccccc2[nH]1)c1cccs1` — outcome as called in the assay?
-1

Lab log entry: `COCCn1c(CN2CCC(Cc3ccccc3)CC2)nc2c1c(=O)n(C)c(=O)n2C` — outcome as called in the assay?
-1

Lab log entry: COc1cc(C2C(C(=O)c3sc(C)nc3C)=C(O)C(=O)N2CCN(C)C)cc(OC)c1OC (configuration not stated) — outcome as called in the assay?
-1

Lab log entry: `CC(C)NC(=O)N1CC[C@@]2(CCCN(C(=O)c3cccn3C)C2)C1` — outcome as called in the assay?
-1

Lab log entry: `Cc1cccc(NC(=O)CSc2nnc(CCCCCNC(=O)OC(C)(C)C)o2)c1C` — outcome as called in the assay?
-1

Lab log entry: `COc1ccc(OC)c2c(N)c(C#N)c(C(F)(F)C(F)(F)F)nc12` — outcome as called in the assay?
1

src = PubChem BioAssay AID590
